Data provenance: patent US8039668B2

tested.system: Mcl-1 (Homo sapiens)
Sequence (Q07820 whole entry): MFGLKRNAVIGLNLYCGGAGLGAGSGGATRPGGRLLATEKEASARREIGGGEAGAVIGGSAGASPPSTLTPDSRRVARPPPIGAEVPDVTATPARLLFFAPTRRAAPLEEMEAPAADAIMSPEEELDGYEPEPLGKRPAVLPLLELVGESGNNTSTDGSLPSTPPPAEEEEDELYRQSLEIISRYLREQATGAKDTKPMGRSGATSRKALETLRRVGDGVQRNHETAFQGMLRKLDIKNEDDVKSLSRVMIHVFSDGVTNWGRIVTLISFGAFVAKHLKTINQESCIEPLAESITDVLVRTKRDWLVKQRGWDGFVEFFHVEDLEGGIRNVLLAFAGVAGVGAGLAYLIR
pIC50: −log10 of the molar value.
Tick TRUE if pIC50 is 6 or greater. Tick FALSE if pIC50 is less than 6.

Completed entries (count: 3):
| molecule | class.name |
| --- | --- |
| Cc1cc2c(C(=O)NC(C)c3ccc(Cl)cc3)c(O)c(O)cc2c(O)c1-c1c(C)cc2c(C(=O)NC(C)c3ccc(Cl)cc3)c(O)c(O)cc2c1O (stereo not shown) | TRUE |
| Cc1cc2c(C(=O)NCCc3ccccc3)c(O)c(O)cc2c(O)c1-c1c(C)cc2c(C(=O)NCCc3ccccc3)c(O)c(O)cc2c1O | TRUE |
| Cc1cc2c(C(=O)NCCc3cccc(Cl)c3)c(O)c(O)cc2c(O)c1-c1c(C)cc2c(C(=O)NCCc3cccc(Cl)c3)c(O)c(O)cc2c1O | FALSE |

Consider the record given below.
Please tell me: is the molecule `CCc1ccc(CCNC(=O)c2c(O)c(O)cc3c(O)c(-c4c(C)cc5c(C(=O)NCCc6ccc(CC)cc6)c(O)c(O)cc5c4O)c(C)cc23)cc1` at or over 6 in terms of pIC50?
TRUE

* * *

tested.system: BCL-XL (Homo sapiens)
Sequence (Q07817 1-209 limits assumed): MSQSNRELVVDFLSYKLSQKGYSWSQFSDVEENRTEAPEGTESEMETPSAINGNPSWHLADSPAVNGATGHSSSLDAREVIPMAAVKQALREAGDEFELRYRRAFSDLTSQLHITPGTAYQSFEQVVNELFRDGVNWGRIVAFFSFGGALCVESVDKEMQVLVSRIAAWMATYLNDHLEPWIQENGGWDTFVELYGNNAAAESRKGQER
assay.explanation: Competitive fluorescence polarization assay (FPA), Bak BH3 peptide
Type: binding
Set-up: 100 nM GST-BCL-XL ΔTM protein
condition.context: Table 9; read-out: FPA IC50 (BCL-XL)
Method: For competitive binding assays, 100 nM GST-BCL-XL ΔTM protein was preincubated with the tested compound at varying concentrations in 47.5 μL PBS (pH=7.4) in 96-well black plates at room temperature for 10 min, then 2.5 μL of 100 nM FITC-labeled Bak BH3 peptide was added to produce a final volume of 50 μL. […] IC50 was determined by fitting the experimental data to a sigmoidal dose-response nonlinear regression model (SigmaPlot 10.0.1, Systat Software, Inc., San Jose, Calif., USA). […]
reported.endpoint: pIC50
For clarity, pIC50 is expressed as the negative log10 of concentration in mol/L.

The following compounds have reported results that may help.
| compound | value.measured |
| --- | --- |
| Cc1cc2c(C(=O)CC(C)C)c(O)c(O)cc2c(O)c1-c1c(C)cc2c(C(=O)CC(C)C)c(O)c(O)cc2c1O | 5.89 |
| Cc1cc2c(C(=O)c3ccccc3)c(O)c(O)cc2c(O)c1-c1c(C)cc2c(C(=O)c3ccccc3)c(O)c(O)cc2c1O | 5.54 |
| Cc1cc2c(C(=O)c3cccc4ccccc34)c(O)c(O)cc2c(O)c1-c1c(C)cc2c(C(=O)c3cccc4ccccc34)c(O)c(O)cc2c1O | 6.80 |
| Cc1cc2c(C(=O)C3CCCC3)c(O)c(O)cc2c(O)c1-c1c(C)cc2c(C(=O)C3CCCC3)c(O)c(O)cc2c1O | 6.35 |

// moving on: another record for pIC50
Give the reported value of pIC50 for this record: CCCCC(CC)CC(=O)c1c(O)c(O)cc2c(O)c(-c3c(C)cc4c(C(=O)CC(CC)CCCC)c(O)c(O)cc4c3O)c(C)cc12 (stereo not drawn)
5.89

* * *

System: human lymphoma RS11846 cell line
assay.explanation: Apoptosis, Annexin V-FITC and propidium iodide assay
Type: cell-based
condition.context: Homo sapiens, Table 9; read-out: RS11846 EC50 (Annexin V- and propidium iodide assay)
reported.endpoint: EC50

The examples below pair each entry with its known result.
| molecular.string | EC50 |
| --- | --- |
| Cc1cc2c(C(=O)c3ccc(C(C)(C)C)cc3)c(O)c(O)cc2c(O)c1-c1c(C)cc2c(C(=O)c3ccc(C(C)(C)C)cc3)c(O)c(O)cc2c1O | 13.4 µM |
| Cc1cc2c(C(=O)Cc3ccccc3)c(O)c(O)cc2c(O)c1-c1c(C)cc2c(C(=O)Cc3ccccc3)c(O)c(O)cc2c1O | 3 to 5.5 µM |
| Cc1cc2c(C(=O)c3ccc(C(F)(F)F)cc3)c(O)c(O)cc2c(O)c1-c1c(C)cc2c(C(=O)c3ccc(C(F)(F)F)cc3)c(O)c(O)cc2c1O | 3 to 5.5 µM |
| Cc1cc2c(C(=O)c3cccc4ccccc34)c(O)c(O)cc2c(O)c1-c1c(C)cc2c(C(=O)c3cccc4ccccc34)c(O)c(O)cc2c1O | 3 to 5.5 µM |

Then this compound:
Give the measured EC50 for `Cc1cc2c(C(=O)CC(C)C)c(O)c(O)cc2c(O)c1-c1c(C)cc2c(C(=O)CC(C)C)c(O)c(O)cc2c1O`
13.7 µM
